All figures here come from ChEMBL document CHEMBL1145554.

Assay: Displacement of [3H]vesamicol from VAChT receptor in torpedo electrical organ synaptic vesicle
observed_property: Ki

Use the examples below as a reference point.
compound=O[C@@H]1C[C@H]2CCCC[C@@H]2C[C@H]1N1CCC(c2ccccc2)CC1 assay_result="0.009 nM"
compound="O[C@@H]1CCCC[C@H]1N1CCC(c2ccccc2)CC1 (relative stereo) [VESAMICOL]" assay_result="7.6 nM"

Could you now consider this next compound?
Ask: Dear colleague, please send me the reported Ki for O=C(CN1C2CCC1CC(c1ccccc1)C2)c1ccc(F)cc1 (stereo not drawn) when you can.
Reply: 3400 nM
